# System: T-47D
# PROCEDURE SUMMARY: viability inhibition at highest dose (% inhibition); higher = more growth inhibition
# TEST PARAMETERS: 4-OH-tamoxifen in medium 0 µM; 72 h
EXPERIMENTAL ENDPOINT: viability inhibition at highest dose

compound="CN1CCC(COc2cnc(-c3cccc(Cn4nc(-c5cccc(C#N)c5)ccc4=O)c3)nc2)CC1 (drug 1000 nM)" experimental_result=-10.4
compound="Cc1cc(Nc2cc(CN3CCOCC3)c3nc(C)c(Cc4ccc(Cl)cc4F)n3n2)n[nH]1 (drug 10000 nM)" experimental_result=21.2
compound="Cc1ccc(-c2cc(C(F)(F)F)nn2-c2ccc(S(N)(=O)=O)cc2)cc1 [Celecoxib] (drug 10000 nM)" experimental_result=-3.21
compound="Nc1nc2[nH]cnc2c(=S)[nH]1 [Thioguanine] (drug 10000 nM)" experimental_result=36.5
compound="CS(=O)(=O)OCCCCOS(C)(=O)=O [Busulfan] (drug 100000 nM)" experimental_result=-1.41
compound="Nc1ccccc1NC(=O)c1ccc(CNc2nccc(-c3cccnc3)n2)cc1 [Mocetotinostat (MGCD0103)] (drug 10000 nM)" experimental_result=81.2
compound="C/C(=C\\c1csc(C)n1)[C@@H]1C[C@@H]2O[C@]2(C)CCC[C@H](C)[C@H](O)[C@@H](C)C(=O)C(C)(C)[C@@H](O)CC(=O)O1 [Patupilone (Epothilone B)] (drug 1000 nM)" experimental_result=38.1

* * *

Each entry below lists one item and its recorded relative IC50 value.
# System: BT-474 Tam1
# PROCEDURE SUMMARY: relative IC50 (midpoint of fitted logistic curve, plateau may be below 50% inhibition; CellTiter-Glo viability); higher = less potent
# TEST PARAMETERS: 4-OH-tamoxifen in medium 1 µM; 72 h
EXPERIMENTAL ENDPOINT: relative IC50 (µM)

compound="CCC1=C[C@@H]2CN(C1)Cc1c([nH]c3ccccc13)[C@@](C(=O)OC)(c1cc3c(cc1OC)N(C)[C@H]1[C@@](O)(C(=O)OC)[C@H](OC(C)=O)[C@]4(CC)C=CCN5CC[C@]31[C@@H]54)C2 [Vinorelbine (tartrate)]" experimental_endpoint="relative IC50" censoring_operator== experimental_result=0.249
compound=CCS(=O)(=O)c1cccc(-c2cc(C(=O)NC3CCN(C)CC3)c(C)c3[nH]c4ncc(C)cc4c23)c1 experimental_endpoint="relative IC50" censoring_operator== experimental_result=0.371
compound=Nc1nc(Cl)nc2c1ncn2[C@H]1C[C@H](O)[C@@H](CO)O1 experimental_endpoint="relative IC50" censoring_operator=> experimental_result=1
compound=COc1cc(Nc2c(C#N)cnc3cc(OCCCN4CCN(C)CC4)c(OC)cc23)c(Cl)cc1Cl experimental_endpoint="relative IC50" censoring_operator== experimental_result=1.58
compound=CC(C)C[C@H](NC(=O)[C@H](CCc1ccccc1)NC(=O)CN1CCOCC1)C(=O)N[C@@H](Cc1ccccc1)C(=O)N[C@@H](CC(C)C)C(=O)[C@@]1(C)CO1 experimental_endpoint="relative IC50" censoring_operator== experimental_result=0.00459
compound=Cn1c(Nc2ccc(C(F)(F)F)cc2)nc2cc(Oc3ccnc(-c4ncc(C(F)(F)F)[nH]4)c3)ccc21 experimental_endpoint="relative IC50" censoring_operator=> experimental_result=1
compound=c1cc(CN2CCCNCCNCCCNCC2)ccc1CN1CCCNCCNCCCNCC1 experimental_endpoint="relative IC50" censoring_operator=> experimental_result=2.5
compound=CC(C)(C)c1cnc(CSc2cnc(NC(=O)C3CCNCC3)s2)o1 experimental_endpoint="relative IC50" censoring_operator== experimental_result=0.0829
compound=Cc1ccc(F)c(NC(=O)Nc2ccc(-c3cccc4[nH]nc(N)c34)cc2)c1 experimental_endpoint="relative IC50" censoring_operator=> experimental_result=1
